assay.protocol: 14-day oral gavage toxicokinetic study in rats
Assay type: in vivo
reported.conditions: male, rat, plasma, po, 15 mg/kg, Mean Compound 1 Plasma Concentration, rats, oral 15 mg/kg, Day 1, 0.5 h, Male
endpoint.label: concentration at 0.5 h (ng/mL)
Give a bare numeral; the unit ng/mL is implied.

Which value of concentration at 0.5 h has been reported for CN1CCN(c2ccc(Nc3ncc4cc5n(c4n3)C3(CCCCC3)CNC5=O)nc2)CC1 in the records?
620

----------
assay.protocol: Compound 1 PK dosed Days 1-3 with etoposide and carboplatin
Format: in vivo, human
reported.conditions: human, plasma, intravenous, Day 1; 4 subjects; range; read-out: concentration at 24.5 hours after the start of infusion, range
endpoint.label: concentration at 24.5 h

Which value of concentration at 24.5 h has been reported for CN1CCN(c2ccc(Nc3ncc4cc5n(c4n3)C3(CCCCC3)CNC5=O)nc2)CC1 in the records?
11.3 to 35.9 ng/mL

----------
assay.protocol: 14-day oral gavage toxicokinetic study in rats
Assay type: in vivo
reported.conditions: male, rat, plasma, po, 2 mg/kg, Compound 1 Plasma Concentration, rats, Male, Day 1, 2 h; daily oral 2 mg/kg (Group 7); individual animals
endpoint.label: concentration at 2 h (ng/mL)
Give a bare numeral; the unit ng/mL is implied.

Which value of concentration at 2 h has been reported for CN1CCN(c2ccc(Nc3ncc4cc5n(c4n3)C3(CCCCC3)CNC5=O)nc2)CC1 in the records?
97.4

----------
assay.protocol: 14-day oral gavage toxicokinetic study in rats
Assay type: in vivo
reported.conditions: male, rat, plasma, po, 5 mg/kg, Individual Compound 1 Plasma Concentration, rats, daily oral 5 mg/kg, Day 14, Male, 24 h
endpoint.label: concentration at 24 h

Which value of concentration at 24 h has been reported for CN1CCN(c2ccc(Nc3ncc4cc5n(c4n3)C3(CCCCC3)CNC5=O)nc2)CC1 [Compound 1] in the records?
11.1 ng/mL

----------
assay.protocol: 14-day oral gavage toxicokinetic study in rats
Assay type: in vivo
reported.conditions: female, rat, plasma, po, 15 mg/kg, oral 15 mg/kg, Study Day 14, Female
endpoint.label: AUC(0-t) (ng·h/mL)
Give a bare numeral; the unit ng·h/mL is implied.

Which value of AUC(0-t) has been reported for CN1CCN(c2ccc(Nc3ncc4cc5n(c4n3)C3(CCCCC3)CNC5=O)nc2)CC1 [Compound 1] in the records?
19800

----------
assay.protocol: 3-compartment model pharmacokinetic analysis, Cohorts 5 and 6
Type: in vivo, human
reported.conditions: both sexes, human, plasma, intravenous, 96 mg/m2, Cohort 5, 96 mg/m^2; 3-compartment secondary (derived) parameter; six subjects, Mean, Median; read-out: Cmax
Text: The concentration-time profile is represented by a tri-exponential equation similar to the following: […] Where A, B, and C are the ‘macroconstants’ which are a function of the dose, volume of distribution and the ‘microconstants’ (K12, K21, K13, K31, and K10). Five of these parameters are rate constants and the 6th is the volume of distribution of the central compartment (V1).
endpoint.label: Cmax (ng/mL)
Give a bare numeral; the unit ng/mL is implied.

Which value of Cmax has been reported for CN1CCN(c2ccc(Nc3ncc4cc5n(c4n3)C3(CCCCC3)CNC5=O)nc2)CC1 [Compound 1] in the records?
991

----------
assay.protocol: 14-day oral gavage toxicokinetic study in rats
Assay type: in vivo
reported.conditions: female, rat, plasma, po, 5 mg/kg, Mean Compound 1 Plasma Concentration, rats, oral 5 mg/kg, Day 1, 1 h, Female
endpoint.label: concentration at 1 h (ng/mL)
Give a bare numeral; the unit ng/mL is implied.

Which value of concentration at 1 h has been reported for CN1CCN(c2ccc(Nc3ncc4cc5n(c4n3)C3(CCCCC3)CNC5=O)nc2)CC1 [Compound 1] in the records?
406

----------
assay.protocol: Single escalating dose IV infusion pharmacokinetics in healthy volunteers (noncompartmental)
Assay type: in vivo, human
reported.conditions: both sexes, human, plasma, iv, 48 mg/m2, Cohort 4, 48 mg/m^2 IV; r6-8=Subjects 1-3,r10=Mean,r12=Min,r13=Median,r14=Max,r16=Geometric Mean; read-out: Tmax
endpoint.label: Tmax (min)
Give a bare numeral; the unit min is implied.

Which value of Tmax has been reported for CN1CCN(c2ccc(Nc3ncc4cc5n(c4n3)C3(CCCCC3)CNC5=O)nc2)CC1 [Compound 1] in the records?
25

----------
assay.protocol: Compound 1 PK dosed Days 1-5 with topotecan
Format: in vivo, human
reported.conditions: human, plasma, intravenous, Cohort 3 (Topotecan 0.75 mg/m^2); Compound 1 200 mg/m^2; Day 1; mean; read-out: Cmax averaged
endpoint.label: Cmax (ng/mL)
Give a bare numeral; the unit ng/mL is implied.

Which value of Cmax has been reported for CN1CCN(c2ccc(Nc3ncc4cc5n(c4n3)C3(CCCCC3)CNC5=O)nc2)CC1 in the records?
1140

----------
assay.protocol: 14-day oral gavage toxicokinetic study in rats
Assay type: in vivo
reported.conditions: both sexes, rat, plasma, po, 15 mg/kg, Mean Compound 1 Plasma Concentration, rats, oral 15 mg/kg, Day 14, 12 h, Overall
endpoint.label: concentration at 12 h
Please append the unit to your numeric answer.

Which value of concentration at 12 h has been reported for CN1CCN(c2ccc(Nc3ncc4cc5n(c4n3)C3(CCCCC3)CNC5=O)nc2)CC1 [Compound 1] in the records?
715 ng/mL

----------
assay.protocol: Single escalating dose IV infusion pharmacokinetics in healthy volunteers (noncompartmental)
Format: in vivo, human
reported.conditions: both sexes, human, plasma, iv, 12 mg/m^2, Cohort 2, 12 mg/m^2 IV; range over 3 subjects; read-out: concentration at 24.5 hours after the start of infusion
endpoint.label: concentration at 24.5 h

Which value of concentration at 24.5 h has been reported for CN1CCN(c2ccc(Nc3ncc4cc5n(c4n3)C3(CCCCC3)CNC5=O)nc2)CC1 in the records?
0.506 to 1.06 ng/mL

----------
assay.protocol: Compound 1 PK dosed Days 1-5 with topotecan
Assay type: in vivo, human
reported.conditions: human, plasma, intravenous, 200 mg/m^2 with Topotecan […]^2 (Cohort 1), Day 1, Median; read-out: t½ (converted)
endpoint.label: half-life
Please append the unit to your numeric answer.

Which value of half-life has been reported for CN1CCN(c2ccc(Nc3ncc4cc5n(c4n3)C3(CCCCC3)CNC5=O)nc2)CC1 [Compound 1] in the records?
5.92 h

----------
assay.protocol: Compound 1 PK dosed Days 1-5 with topotecan
Type: in vivo, human
reported.conditions: human, plasma, intravenous, Cohort 3 (Topotecan 0.75 mg/m^2); Day 4; mean; read-out: concentration at 24.5 hours after dosing, averaged
endpoint.label: concentration at 24.5 h (ng/mL)
Give a bare numeral; the unit ng/mL is implied.

Which value of concentration at 24.5 h has been reported for CN1CCN(c2ccc(Nc3ncc4cc5n(c4n3)C3(CCCCC3)CNC5=O)nc2)CC1 in the records?
18.2

----------
assay.protocol: Topotecan PK following Compound 1 infusion
Format: in vivo, human
reported.conditions: human, plasma, intravenous, Topotecan 1.25 mg/m^2 (Cohort 2) with Compound 1 200 mg/m^2, Day 4, individual subjects; read-out: t½ (converted)
endpoint.label: half-life (min)
Give a bare numeral; the unit min is implied.

Which value of half-life has been reported for CC[C@@]1(O)C(=O)OCc2c1cc1n(c2=O)Cc2cc3c(CN(C)C)c(O)ccc3nc2-1.Cl in the records?
323

----------
assay.protocol: 14-day oral gavage toxicokinetic study in rats
Assay type: in vivo
reported.conditions: female, rat, plasma, po, 2 mg/kg, oral 2 mg/kg, Study Day 14, Female
endpoint.label: Tmax (h)
Give a bare numeral; the unit h is implied.

Which value of Tmax has been reported for CN1CCN(c2ccc(Nc3ncc4cc5n(c4n3)C3(CCCCC3)CNC5=O)nc2)CC1 [Compound 1] in the records?
2

----------
assay.protocol: Single escalating dose IV infusion pharmacokinetics in healthy volunteers (noncompartmental)
Type: in vivo, human
reported.conditions: both sexes, human, plasma, iv, 6 mg/m2, Cohort 1, 6 mg/m^2 IV; mean; read-out: Cmax averaged
endpoint.label: Cmax (ng/mL)
Give a bare numeral; the unit ng/mL is implied.

Which value of Cmax has been reported for CN1CCN(c2ccc(Nc3ncc4cc5n(c4n3)C3(CCCCC3)CNC5=O)nc2)CC1 [Compound 1] in the records?
50.9

----------
assay.protocol: Single escalating dose IV infusion pharmacokinetics in healthy volunteers (noncompartmental)
Type: in vivo, human
reported.conditions: both sexes, human, plasma, iv, 96 mg/m^2, Cohort 5, 96 mg/m^2, 30-minute IV infusion; noncompartmental; subjects 1-6, Mean, Min, Median, Max, Geometric Mean; read-out: t½ (converted)
endpoint.label: half-life (h)
Give a bare numeral; the unit h is implied.

Which value of half-life has been reported for CN1CCN(c2ccc(Nc3ncc4cc5n(c4n3)C3(CCCCC3)CNC5=O)nc2)CC1 in the records?
7.11

----------
assay.protocol: 14-day oral gavage toxicokinetic study in rats
Format: in vivo
reported.conditions: male, rat, plasma, po, 15 mg/kg, Individual Compound 1 Plasma Concentration, rats, daily oral 15 mg/kg, Day 14, Male, 8 h
Experimental: Plasma was obtained from blood samples collected from rats in a composite sampling scheme, with 3 samples collected per sex, per dose, at each target collection time, as illustrated in Table 21 to Table 25. […] The following parameters were determined: […] A value of 0 ng/mL was assigned to all values below the lower limit of quantitation (BLQ, <10.0 ng/mL). […] CL: Clearance (L/h/kg), calculated as the dose divided by AUC(0-t). […] Cmax/Dose: Normalized Cmax, calculated as Cmax divided by total dose. […]
endpoint.label: concentration at 8 h (ng/mL)
Give a bare numeral; the unit ng/mL is implied.

Which value of concentration at 8 h has been reported for CN1CCN(c2ccc(Nc3ncc4cc5n(c4n3)C3(CCCCC3)CNC5=O)nc2)CC1 in the records?
1190
